system: UGT enzymes of human liver microsomes; construct: percentage of control metabolism, 7-HFC glucuronidation; percentage of control metabolism, 7-HFC glucuronidation; test: Inhibition of 7-HFC glucuronidation in human liver microsomes; format: biochemical; conditions: inhibitor 100 μM
Measured quantity: percentage of control metabolism, 7-HFC glucuronidation

Compound | Target of assay | Observed measurement
O=C(O[C@@H]1Cc2c(O)cc(O)cc2O[C@@H]1c1ccc(O)c(O)c1)c1cc(O)c(O)c(O)c1 [Epicatechin gallate] | UGT enzymes of human liver microsomes | 67 (1) %
O=c1c(O)c(-c2ccc(O)c(O)c2)oc2cc(O)cc(O)c12 [Quercetin] | UGT enzymes of human liver microsomes | 58 (1) %
O=C(O)c1cc(-c2ccc(F)cc2F)ccc1O [Diflunisal, reference compound] | UGT enzymes of human liver microsomes | 77 (2) %
CCCCC/C=C\C/C=C\CCCCCCCC(=O)O [Linoleic acid] | UGT enzymes of human liver microsomes | 86 (3) %

---

Measured activity at 15 min, 50 µM values are reported for all entries that follow.
Target: UGT1A9 (Homo sapiens, UniProt O60656)
Sequence (O60656 26-530): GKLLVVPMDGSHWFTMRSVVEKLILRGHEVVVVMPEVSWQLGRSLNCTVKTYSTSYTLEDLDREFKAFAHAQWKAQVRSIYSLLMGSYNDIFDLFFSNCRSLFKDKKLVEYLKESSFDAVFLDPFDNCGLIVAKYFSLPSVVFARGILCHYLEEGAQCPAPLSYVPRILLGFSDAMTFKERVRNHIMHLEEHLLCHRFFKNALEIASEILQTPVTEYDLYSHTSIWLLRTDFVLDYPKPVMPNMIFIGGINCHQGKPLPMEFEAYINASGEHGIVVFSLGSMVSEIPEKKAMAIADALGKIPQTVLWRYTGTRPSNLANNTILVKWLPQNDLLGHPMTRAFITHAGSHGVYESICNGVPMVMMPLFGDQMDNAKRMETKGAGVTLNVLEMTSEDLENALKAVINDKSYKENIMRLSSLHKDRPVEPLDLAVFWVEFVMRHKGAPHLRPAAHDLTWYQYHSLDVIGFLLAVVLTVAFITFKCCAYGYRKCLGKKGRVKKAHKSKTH
Test: in vitro
Details: pH 7.5, % of control metabolism, raloxifene G2

Compound | activity at 15 min, 50 µM
CCCOC(=O)c1cc(O)c(O)c(O)c1 [Propyl gallate] | 51%
O=C(O[C@@H]1Cc2c(O)cc(O)cc2O[C@@H]1c1ccc(O)c(O)c1)c1cc(O)c(O)c(O)c1 [Epicatechin gallate] | 45%
C=CCc1ccc(O)c(OC)c1 | 29%

---

Molecular target: UGT enzymes of human liver microsomes (Homo sapiens)
Construct: residual metabolism (percentage of control), zidovudine glucuronidation; other: liver lot 062101; residual metabolism (percentage of control), zidovudine glucuronidation; residual metabolism (percentage of control)
Sequence (P16662 1-529): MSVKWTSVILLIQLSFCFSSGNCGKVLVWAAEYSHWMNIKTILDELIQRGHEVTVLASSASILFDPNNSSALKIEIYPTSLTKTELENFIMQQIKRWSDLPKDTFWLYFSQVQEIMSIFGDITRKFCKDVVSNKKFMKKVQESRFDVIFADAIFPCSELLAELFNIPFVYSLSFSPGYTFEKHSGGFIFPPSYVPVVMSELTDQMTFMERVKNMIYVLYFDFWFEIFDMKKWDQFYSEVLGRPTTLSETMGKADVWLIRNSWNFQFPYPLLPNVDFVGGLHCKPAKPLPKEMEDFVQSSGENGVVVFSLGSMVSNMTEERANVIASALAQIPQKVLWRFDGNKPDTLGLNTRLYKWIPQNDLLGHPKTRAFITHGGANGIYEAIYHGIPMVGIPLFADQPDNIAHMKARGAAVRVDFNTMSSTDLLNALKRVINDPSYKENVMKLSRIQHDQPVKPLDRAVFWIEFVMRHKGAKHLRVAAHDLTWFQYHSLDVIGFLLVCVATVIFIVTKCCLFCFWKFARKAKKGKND
Assay: Inhibition of zidovudine glucuronidation in human liver microsomes
Format: biochemical
Details: liver lot 062101; inhibitor 200 μM
Measured residual metabolism (percentage of control), zidovudine glucuronidation values are reported for all entries that follow.
Measured quantity: residual metabolism (percentage of control), zidovudine glucuronidation

Compound | Observed measurement
CC1CCC(C(C)C)C(O)C1 (stereo not shown) | 63 (6) %
O=C(c1ccc(OCCN2CCCCC2)cc1)c1c(-c2ccc(O)cc2)sc2cc(O)ccc12 [Raloxifene, raloxifene, reference compound] | 32 (4) %
O=C1C[C@@H](c2ccc(O)cc2)Oc2cc(O)cc(O)c21 | 64 (3) %
O=C(O[C@@H]1Cc2c(O)cc(O)cc2O[C@@H]1c1ccc(O)c(O)c1)c1cc(O)c(O)c(O)c1 [Epicatechin gallate] | 60 (2) %
CC(C)=CCC/C(C)=C/CO | 62 (3) %
C[C@]12CC[C@@H]3c4ccc(O)cc4CC[C@H]3[C@@H]1CC[C@@H]2O [E2, 17-β-estradiol, reference compound] | 24 (0) %
Cc1ccc(C(C)C)cc1O | 75 (3) %

---

test system: UGT enzymes of human liver microsomes; construct: percentage of control metabolism, 7-HFC glucuronidation; percentage of control metabolism, 7-HFC glucuronidation; assay: Inhibition of 7-HFC glucuronidation in human liver microsomes; type: biochemical; details: inhibitor 500 μM; 7-HFC 50 μM, human liver microsomes 100 μg/ml, 15 min
Measured quantity: % of control metabolism (SD, n = 3), 7-HFC glucuronidation

Molecule | Observed measurement
COc1cc(CNC(=O)CCCC/C=C/C(C)C)ccc1O | 39 (0) %
CCCN(CCC)S(=O)(=O)c1ccc(C(=O)O)cc1 [Probenecid, reference compound] | 91 (1) %
C=CCc1ccc(O)c(OC)c1 | 63 (1) %
COc1cc(CNC(=O)CCCCCCC(C)C)ccc1O [Dihydrocapsaicin] | 42 (2) %
OCC=Cc1ccccc1 | 87 (1) %
COc1ccc2cc(CCC(C)=O)ccc2c1 | 81 (3) %
C=CC(C)(O)CCC=C(C)C (centres unmarked) | 86 (2) %
O=C1O[C@H]([C@@H](O)CO)C(O)=C1O | 99 (1) %
CCCCNC(=O)NS(=O)(=O)c1ccc(C)cc1 [Tolbutamide] | 100 (0) %
Cc1cn([C@H]2C[C@H](N=[N+]=[N-])[C@@H](CO[C@@H]3O[C@H](C(=O)O)[C@@H](O)[C@H](O)[C@H]3O)O2)c(=O)[nH]c1=O [AZT glucuronide] | 103 (1) %
COc1c(C)c2c(c(O)c1C/C=C(\C)CCC(=O)O)C(=O)OC2 [Mycophenolic acid, reference compound] | 83 (2) %
CCCCCCCCCCCCCCCCCC(=O)OC[C@H](O)[C@H]1OC(=O)C(O)=C1O [Ascorbyl stearate] | 73 (2) %
COc1cc(/C=C/CO)ccc1O | 87 (0) %
O=[N+]([O-])c1ccc(O)cc1 [p-Nitrophenol, reference compound] | 62 (1) %
O=C(O)c1cc(O)c(O)c(O)c1 | 117 (2) %
CC/C(=C(/CC)c1ccc(O)cc1)c1ccc(O)cc1 [Diethylstilbestrol, reference compound] | 0.1 (0) %
O=C(O[C@@H]1Cc2c(O)cc(O)cc2O[C@@H]1c1ccc(O)c(O)c1)c1cc(O)c(O)c(O)c1 [Epicatechin gallate] | 10 (1) %
CC(C)=CCC/C(C)=C\CO | 71 (2) %
CCCCCCCCCCCCCCCC(=O)O[C@H]1CC[C@@]2(C)C(=CC[C@H]3[C@@H]4CC[C@H]([C@H](C)CCCC(C)C)[C@@]4(C)CC[C@@H]32)C1 [Cholesteryl palmitate] | 100 (3) %
CCCCCCCCCCCCCCCC(=O)Oc1ccc([N+](=O)[O-])cc1 [p-Nitrophenyl palmitate] | 96 (1) %
CC(CCc1ccccc1)NCC(O)c1ccc(O)c(C(N)=O)c1 (centres unmarked) | 95 (2) %
COc1ccc2cc([C@H](C)C(=O)O)ccc2c1 [Naproxen Free Acid] | 83 (1) %
CC1=C(/C=C/C(C)=C/C=C/C(C)=C/CO)C(C)(C)CCC1 | 25 (1) %
CCCCC/C=C\C/C=C\CCCCCCCC(=O)O | 33 (1) %
CCCCCCCCOC(=O)c1cc(O)c(O)c(O)c1 [Octyl gallate] | 0.1 (0.1) %
O=C(O)C=Cc1ccccc1 | 94 (2) %

---

system: UGT enzymes of human liver microsomes; test: Inhibition of raloxifene glucuronidation (G1, G2) in human liver microsomes; format: biochemical; conditions: G2; inhibitor 100 μM; raloxifene 50 μM, human liver microsomes 250 μg/ml, 15 min
Measured quantity: % of control metabolism (SD, n = 3), raloxifene glucuronide G2

Molecule | Observed measurement
O=C(O[C@@H]1Cc2c(O)cc(O)cc2O[C@@H]1c1ccc(O)c(O)c1)c1cc(O)c(O)c(O)c1 [Epicatechin gallate] | 24 (2) %
O=C(O[C@@H]1Cc2c(O)cc(O)cc2O[C@H]1c1cc(O)c(O)c(O)c1)c1cc(O)c(O)c(O)c1 [Gallocatechin gallate] | 29 (1) %
O=c1c(O)c(-c2ccc(O)c(O)c2)oc2cc(O)cc(O)c12 | 13 (2) %
COc1cc(CNC(=O)CCCCCCC(C)C)ccc1O [Dihydrocapsaicin] | 68 (2) %
C#C[C@]1(O)CC[C@H]2[C@@H]3CCc4cc(O)ccc4[C@H]3CC[C@@]21C [17-α-Ethinylestradiol, 17-α-ethinylestradiol, reference compound] | 56 (3) %
CC1=C(CC(=O)O)c2cc(F)ccc2/C1=C\c1ccc([S+](C)[O-])cc1 (stereo not shown) | 79 (4) %
CCCOC(=O)c1cc(O)c(O)c(O)c1 [Propyl gallate] | 52 (3) %
O=C(O)c1cc(-c2ccc(F)cc2F)ccc1O [Diflunisal, reference compound] | 34 (1) %
CC/C(=C(/CC)c1ccc(O)cc1)c1ccc(O)cc1 [Diethylstilbestrol, reference compound] | 43 (0) %
CCCCCCCCOC(=O)c1cc(O)c(O)c(O)c1 [Octyl gallate] | 52 (7) %

Data credit: patent US20030215462A1
